Reported IC50 values for a set of molecules
# run_description: Inhibition of ADP-induced aggregation of human blood platelets in plasma
# Assay type: functional
# assay_setup: Homo sapiens, Plasma
Number in µM, nothing else.

Noted for O=C(O)CCCOc1ccc(-n2cnc(-c3ccccc3)c2-c2ccccc2)cc1 : its IC50 reads 29.2

----------
Reported pIC50 values for a set of molecules
# run_description: Inhibition of ADP-induced aggregation of human blood platelets in plasma
# Format: functional
# assay_setup: Homo sapiens, Plasma
Scale: pIC50 equals -log10([C]), with [C] in mol/L.

CCc1ccc(-c2nc(CCc3cccc(OCC(=O)O)c3)oc2-c2ccc(CC)cc2)cc1 ... 4.55

Noted for O=C(O)COc1cccc(CCc2nc(-c3ccc(Br)cc3)c(-c3ccc(Br)cc3)o2)c1 : its pIC50 reads 4.90

Noted for O=C(O)CCCCCCCCn1cc(-c2ccccc2)c(-c2ccccc2)c1 : its pIC50 reads 4.99

Noted for O=C(O)CCCCCCCCn1nc(-c2ccccc2)c(-c2ccccc2)c1-c1ccccc1 : its pIC50 reads 6.40

Noted for O=C(O)COc1cccc(CCn2nc(-c3ccccc3)c(-c3ccccc3)nc2=O)c1 : its pIC50 reads 5.68

----------
# run_description: Inhibition of ADP-induced aggregation of human blood platelets in plasma
# Type: functional
measured_parameter: IC50

Noted for O=C(O)CCCCCCCCn1cc(-c2ccccc2)c(-c2ccccc2)n1 : its IC50 reads 5.8 µM

----------
# run_description: Inhibition of ADP-induced aggregation of human blood platelets in plasma
# Type: functional
# assay_setup: Homo sapiens, Plasma
measured_parameter: IC50 (µM)
Number in µM, nothing else.

For orientation, consider the following solved cases.
O=C(O)CCCCCCCn1nc(-c2ccccc2)c(-c2ccccc2)cc1=O ... 4.1
O=C(O)COc1cccc(CCc2nc(-c3ccccc3F)c(-c3ccccc3F)o2)c1 ... 1.4
COc1ccc(-c2nc(CCc3cccc(OCC(=O)O)c3)oc2-c2ccc(OC)cc2)cc1 ... 5.2
O=C(O)COc1cccc(CCc2nc(-c3ccccc3)c(-c3ccccc3)s2)c1 ... 0.86
O=C(O)CCCCCCCOc1ncc(-c2ccccc2)c(-c2ccccc2)n1 ... 35.9
O=C(O)COc1cccc(CCn2cc(-c3ccccc3)c(-c3ccccc3)n2)c1 ... 0.87
O=C(O)CCCCCCCn1cc(-c2ccccc2)c(-c2ccccc2)nc1=O ... 25.6
O=C(O)COc1cccc(/C=C/c2nnc(-c3ccccc3)n2-c2ccccc2)c1 ... 2.99

Noted for O=C(O)CCCCCCCn1cnc(-c2ccccc2)c1-c1ccccc1 : its IC50 reads 8.19

Noted for O=C(O)CCCCCCCCn1c(-c2ccccc2)nc(-c2ccccc2)c1-c1ccccc1 : its IC50 reads 3.9

Noted for Cc1ccc(-c2nc(CCc3cccc(OCC(=O)O)c3)oc2-c2ccc(C)cc2)cc1 : its IC50 reads 0.34

Noted for COc1cccc(-c2nc(CCc3cccc(OCC(=O)O)c3)oc2-c2cccc(OC)c2)c1 : its IC50 reads 7.2

Noted for O=C(O)CCCCCCCn1nc(-c2ccccc2)c(-c2ccccc2)nc1=O : its IC50 reads 7.9

----------
Reported pIC50 values for a set of compounds
# run_description: Inhibition of ADP-induced aggregation of human blood platelets in plasma
# Assay type: functional
# assay_setup: Homo sapiens, Plasma
Scale: pIC50 equals -log10([C]), with [C] in mol/L.

O=C(O)CCCCCCCn1cc(-c2ccccc2)c(-c2ccccc2)n1 ... 5.86
O=C(O)COc1cccc(CCn2nc(-c3ccccc3)c(-c3ccccc3)cc2=O)c1 ... 5.72

Turning to the following compound.
Noted for O=C(O)COc1cccc(CCc2nc(-c3cccc(F)c3)c(-c3cccc(F)c3)o2)c1 : its pIC50 reads 4.75
